Tested on: HCT116
Test: efficacy (fitted maximal change in viability relative to DMSO control); higher = less cytotoxic (negative = loss of viability)
Conditions: 48 h
ASSAY READOUT: efficacy (%)
Give bare numbers, in %.

# annotated cases, reported efficacy shown
| COMPOUND | EXPERIMENTAL TARGET | OBSERVED RESULT |
| --- | --- | --- |
| OC[C@H]1O[C@H](C[C@@H]1O)N2\C=C(F)/C(=O)NC2=O | HCT116 | -82.9 |
| C[C@@H](C1CC[C@@]2(O)C3=CC(=O)[C@@H]4C[C@@H](O)[C@@H](O)C[C@]4(C)[C@H]3CC[C@]12C)[C@H](O)CCC(C)(C)O (some centres undefined) | HCT116 | -17.9 |
| CC(C)n1cc(-c2ccc3c(c2)N(C)CC3)c2c(N[S+](=O)([O-])c3ccn(C)n3)ccnc21 | HCT116 | -24.7 |

Could you now consider this next compound?
Lookup: Please provide the recorded efficacy for "OC1=CC=C(C=C1)\C2=C\C(=O)C3=C(O2)C=C(O)C=C3O" , tested on HCT116.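 Note: Luminescence-based viability readout, five doses per compound, normalized against on-plate DMSO and empty-well controls, followed by dose-response curve fitting for every drug.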
Found: -82
